// provenance: ChEMBL document CHEMBL1133406

molecular target: Gonadotropin-releasing hormone receptor (Homo sapiens, UniProt P30968); experiment: In vitro inhibitory activity against […] CHO cells stably expressing human gonadotropin-releasing hormone receptor; assay type: cell-based
Sequence (P30968 whole entry): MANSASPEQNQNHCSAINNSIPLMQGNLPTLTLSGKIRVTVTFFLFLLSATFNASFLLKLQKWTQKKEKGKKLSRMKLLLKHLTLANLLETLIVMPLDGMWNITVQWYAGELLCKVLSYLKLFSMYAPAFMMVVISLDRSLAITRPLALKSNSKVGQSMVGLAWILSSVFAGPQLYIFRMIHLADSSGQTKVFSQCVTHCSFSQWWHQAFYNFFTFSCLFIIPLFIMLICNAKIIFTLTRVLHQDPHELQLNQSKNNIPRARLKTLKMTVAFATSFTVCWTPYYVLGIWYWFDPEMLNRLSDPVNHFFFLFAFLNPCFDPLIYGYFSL
Record form. Attribute: log10(IC50). Fill in for each entry.
log10 IC50, nM

Fill in: log10(IC50) of CCn1nccc1NC(=O)c1cc2c(OCCC3CCCCN3)c(-c3cc(C)cc(C)c3)c(O)nc2cc1Cl (centres undefined) is ___ 2.93

Fill in: log10(IC50) of Cc1cc(C)cc(-c2c(O)nc3cc(Cl)c(C(=O)Nc4cc(C)no4)cc3c2OCCC2CCCCN2)c1 (centres undefined) is ___ 1.36

Fill in: log10(IC50) of Cc1cc(C)cc(-c2c(O)nc3cc(Cl)c(C(=O)Nc4cc(C)nc(C)n4)cc3c2OCCC2CCCCN2)c1 (centres undefined) is ___ 1.60

Fill in: log10(IC50) of Cc1cc(C)cc(-c2c(O)nc3cc(Cl)c(C(=O)Nc4ccnc(C5CC5)n4)cc3c2OCCC2CCCCN2)c1 (centres undefined) is ___ 1.18

Fill in: log10(IC50) of Cc1cc(C)cc(-c2c(O)nc3cc(Cl)c(C(=O)Nc4cc(C)ns4)cc3c2OCCC2CCCCN2)c1 (centres undefined) is ___ 0.46

Fill in: log10(IC50) of Cc1cc(C)cc(-c2c(O)nc3cc(Cl)c(C(=O)Nc4cc(C)ncn4)cc3c2OCCC2CCCCN2)c1 (centres undefined) is ___ 0.45

Fill in: log10(IC50) of `Cc1cc(C)cc(-c2c(O)nc3cc(Cl)c(C(=O)Nc4cnsn4)cc3c2OCC[C@@H]2CCCCN2)c1` is ___ -0.10

Fill in: log10(IC50) of Cc1cc(C)cc(-c2c(O)nc3cc(Cl)c(C(=O)Nc4ccncc4)cc3c2OCCC2CCCCN2)c1 (centres undefined) is ___ 0.58

Fill in: log10(IC50) of Cc1cc(C)cc(-c2c(O)nc3cc(Cl)c(C(=O)Nc4cc(C)on4)cc3c2OCCC2CCCCN2)c1 (centres undefined) is ___ 0.36

Fill in: log10(IC50) of Cc1cc(C)cc(-c2c(O)nc3cc(Cl)c(C(=O)Nc4cnsn4)cc3c2OCCC2CCCCN2)c1 (centres undefined) is ___ 0.30

Fill in: log10(IC50) of Cc1cc(C)cc(-c2c(O)nc3cc(Cl)c(C(=O)NCc4ccc5c(c4)OCO5)cc3c2OCCC2CCCCN2)c1 (centres undefined) is ___ 2.04

Fill in: log10(IC50) of Cc1cc(C)cc(-c2c(O)nc3cc(Cl)c(C(=O)Nc4ccc(N(C)C)cc4)cc3c2OCCC2CCCCN2)c1 (centres undefined) is ___ 1.04

Fill in: log10(IC50) of Cc1cc(C)cc(-c2c(O)nc3cc(Cl)c(C(=O)Nc4cccnc4)cc3c2OCCC2CCCCN2)c1 (centres undefined) is ___ 1.51

Fill in: log10(IC50) of Cc1cc(C)cc(-c2c(O)nc3cc(Cl)c(C(=O)Nc4ccnc(C)n4)cc3c2OCCC2CCCCN2)c1 (centres undefined) is ___ 0.26

Fill in: log10(IC50) of Cc1cc(C)cc(-c2c(O)nc3cc(Cl)c(C(=O)Nc4ccccn4)cc3c2OCCC2CCCCN2)c1 (centres undefined) is ___ 0.56

Fill in: log10(IC50) of `Cc1cc(C)cc(-c2c(O)nc3cc(Cl)c(C(=O)Nc4ccncn4)cc3c2OCC[C@@H]2CCCCN2)c1` is ___ -0.05

Fill in: log10(IC50) of Cc1cc(C)cc(-c2c(O)nc3cc(Cl)c(C(=O)Nc4cnccn4)cc3c2OCCC2CCCCN2)c1 (centres undefined) is ___ 0.85

Fill in: log10(IC50) of Cc1cc(C)cc(-c2c(O)nc3cc(Cl)c(C(=O)Nc4nc[nH]n4)cc3c2OCCC2CCCCN2)c1 (centres undefined) is ___ 2.51

Fill in: log10(IC50) of Cc1cc(C)cc(-c2c(O)nc3cc(Cl)c(C(=O)Nc4nnc(C)s4)cc3c2OCCC2CCCCN2)c1 (centres undefined) is ___ 1.45

Fill in: log10(IC50) of COc1nccc(NC(=O)c2cc3c(OCCC4CCCCN4)c(-c4cc(C)cc(C)c4)c(O)nc3cc2Cl)n1 (centres undefined) is ___ 0.95

Fill in: log10(IC50) of Cc1cc(C)cc(-c2c(O)nc3cc(Cl)c(C(=O)Nc4ncccn4)cc3c2OCCC2CCCCN2)c1 (centres undefined) is ___ 2.46

Fill in: log10(IC50) of Cc1cc(C)cc(-c2c(O)nc3cc(Cl)c(C(=O)Nc4cc(Cl)ncn4)cc3c2OCCC2CCCCN2)c1 (centres undefined) is ___ 0.15

Fill in: log10(IC50) of Cc1cc(C)cc(-c2c(O)nc3cc(Cl)c(C(=O)Nc4ccncn4)cc3c2OCCC2CCCCN2)c1 (centres undefined) is ___ 0.51

Fill in: log10(IC50) of Cc1cc(C)cc(-c2c(O)nc3cc(Cl)c(C(=O)Nc4nncs4)cc3c2OCCC2CCCCN2)c1 (centres undefined) is ___ 1.51
